Below: a set of entries, each annotated with reported EC50.
- assay.target: T1, PCSK9-BP15-His6 (human, UniProt Q8NBP7 31-692, biotin on the BP15 biotin receiving peptide)
- T1 construct: It holds a signal peptide (underlined in print); also called WT PCSK9; bio-WT-PCSK9
- measurement.description: ELISA, bio-WT-PCSK9 captured on streptavidin plate
- Protocol: The binding ability of anti-PCSK9 antibodies of the present invention to PCSK9 was detected by measuring the amount of antibodies binding to wild-type PCSK9 protein (WT PCSK9, SEQ ID NO: 5) fixed on the ELISA plate. Streptavidin (sigma, CAT#S4762) was diluted to 2 μg/ml with PBS and coated into 96-well ELISA plate, at 4° C. overnight. […] Finally, the stop solution was added and the OD450 value was measured on the Microplate reader, and then EC50 was calculated.
Quick reminder: number only, in µg/mL, skip the unit.

Here is how some binders turned out for EC50.
binder | meas.value
h001-11 (antibody, human IgG1, V domains shown, Variable regions only; also called h001_VH.1B + h001_VL.1B) VH: QVQLVQSGAEVKKPGASVKVSCKASGYTFTDYWMHWVRQAPGQGLEWMGYINPSSGFTKYHQNFKDRVTMTRDTSISTAYMELSRLTSDDTAVYYCARQYDYDEDWYFDVWGQGTTVTVSS VL: DIQMSQSPSSLSASVGDRVTITCKSSQSLLNSRTRKNFLAWYQQKPGKAPKLLIYWASTRESGVPDRFSGSGSGTDFTLTISSLQPEDFATYYCKQSFNLFTFGQGTKLEIK | 0.0129
Ch-001 (antibody, V domains shown, also called chimeric antibody) VH: QVHLQQSGAELAKPGASVKLSCKASGYTFNDYWMHWVKERPGQGLEWIGYINPSSGFTKYHQNFKDKATLTADKSSSTAYMQLSSLTYDDSAVYYCARQYDYDEDWYFDVWGTGTTVTVSS VL: DIVMSQSPSSLAVSAGEKVTMSCKSSQSLLNSRTRKNFLAWYQQKPGQSPKLLIYWASTRESGVPDRFTGRGSGTDFTLTISSVQAEDLAVYYCKQSFNLFTFGSGTKLEIK | 0.0084

Next binder, please.
# input Which EC50 is listed for h001-20 (antibody, human IgG1, V domains shown, Variable regions only; also called h001_VH.1D + h001_VL.1C) VH: QVQLVQSGAEVKKPGASVKVSCKASGYTFNDYWMHWVRQAPGQGLEWMGYINPSSGFTKYHQNFKDRVTMTADKSISTAYMELSRLTSDDTAVYYCARQYDYDEDWYFDVWGQGTTVTVSS VL: DIVMSQSPSSLSASVGDRVTITCKSSQSLLNSRTRKNFLAWYQQKPGKSPKLLIYWASTRESGVPDRFSGSGSGTDFTLTISSLQPEDFATYYCKQSFNLFTFGQGTKLEIK ?
# output 0.0126
